- assay target: Cystic fibrosis transmembrane conductance regulator (Homo sapiens, UniProt P13569, N1303K)
- Sequence (P13569 whole entry N1303K): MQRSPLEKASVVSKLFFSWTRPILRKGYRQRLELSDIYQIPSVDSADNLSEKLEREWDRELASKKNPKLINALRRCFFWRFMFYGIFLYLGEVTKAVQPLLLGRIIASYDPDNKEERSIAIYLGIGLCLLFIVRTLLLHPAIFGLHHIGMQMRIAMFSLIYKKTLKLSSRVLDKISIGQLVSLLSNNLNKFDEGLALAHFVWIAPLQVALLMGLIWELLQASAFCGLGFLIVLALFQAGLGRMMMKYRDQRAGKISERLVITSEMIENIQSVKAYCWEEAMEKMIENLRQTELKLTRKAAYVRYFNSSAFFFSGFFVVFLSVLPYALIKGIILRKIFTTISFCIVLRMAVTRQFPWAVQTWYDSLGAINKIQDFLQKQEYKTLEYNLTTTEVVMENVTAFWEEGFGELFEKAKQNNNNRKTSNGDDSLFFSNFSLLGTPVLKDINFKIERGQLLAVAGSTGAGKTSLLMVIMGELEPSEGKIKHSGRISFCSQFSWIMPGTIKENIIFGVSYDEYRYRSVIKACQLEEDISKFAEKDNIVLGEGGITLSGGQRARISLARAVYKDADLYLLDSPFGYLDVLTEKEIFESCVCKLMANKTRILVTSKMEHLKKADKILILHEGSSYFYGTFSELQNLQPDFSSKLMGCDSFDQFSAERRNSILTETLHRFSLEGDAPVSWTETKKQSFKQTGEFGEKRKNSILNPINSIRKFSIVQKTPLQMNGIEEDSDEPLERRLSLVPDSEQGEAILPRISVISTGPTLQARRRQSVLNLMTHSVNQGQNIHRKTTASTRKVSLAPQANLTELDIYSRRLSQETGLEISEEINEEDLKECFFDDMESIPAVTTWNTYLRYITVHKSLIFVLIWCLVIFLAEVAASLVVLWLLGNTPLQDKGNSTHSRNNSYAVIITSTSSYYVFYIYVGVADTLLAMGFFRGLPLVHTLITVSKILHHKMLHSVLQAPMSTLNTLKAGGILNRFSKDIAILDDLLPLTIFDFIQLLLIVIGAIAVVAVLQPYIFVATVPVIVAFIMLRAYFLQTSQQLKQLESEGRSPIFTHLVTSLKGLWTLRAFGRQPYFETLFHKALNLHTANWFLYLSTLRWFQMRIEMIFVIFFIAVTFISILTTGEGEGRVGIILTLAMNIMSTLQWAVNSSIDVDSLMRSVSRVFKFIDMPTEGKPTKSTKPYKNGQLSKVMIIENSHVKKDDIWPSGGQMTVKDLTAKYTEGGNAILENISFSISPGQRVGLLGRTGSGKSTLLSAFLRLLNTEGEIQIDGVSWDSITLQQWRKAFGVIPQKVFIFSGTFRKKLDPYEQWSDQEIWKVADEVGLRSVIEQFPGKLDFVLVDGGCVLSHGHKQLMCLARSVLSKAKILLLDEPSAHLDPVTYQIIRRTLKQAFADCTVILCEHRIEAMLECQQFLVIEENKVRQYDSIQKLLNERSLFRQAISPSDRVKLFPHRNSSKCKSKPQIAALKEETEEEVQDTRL
- experimental details: Potentiation of CFTR N1303K mutant (unknown origin) expressed in rat FRT cells assessed as increase in VX-770-stimulated chloride current in presence of forskolin by short circuit method
pEC50: −log10 of the molar value.
measurement name: pEC50

a: COc1ccc2[nH]c3c(c2c1)CCNC31CCN(Cc2cc(Cl)ccc2[N+](=O)[O-])CC1
b: COc1ccc2[nH]c3c(c2c1)CCNC31CCN(Cc2ccc(Cl)cc2Cl)CC1
Query :: // compare measured pEC50, left a , right b , return larger Pick one; state its label.
Result :: b

---

- Tested on: Cystic fibrosis transmembrane conductance regulator (Homo sapiens), P13569 [N1303K]
- Sequence (P13569 whole entry N1303K): as above
- experimental details: Potentiation of CFTR N1303K mutant (unknown origin) expressed in rat FRT cells assessed as increase in VX-770-stimulated chloride current in presence of forskolin by short circuit method
- Format: cell-based
Active and inactive are the calls of the source. The rule behind the calls is not given here.
measurement name: Activity

1) COc1ccc2[nH]c3c(c2c1)CCNC31CCN(Cc2ccc(F)cc2F)C1 (configuration not stated): inactive
2) COc1ccc2[nH]c3c(c2c1)CCNC31CCCN(Cc2ccc(F)cc2F)C1 (configuration not stated): inactive
3) COc1ccc2[nH]c3c(c2c1)CCNC31CCNCC1: inactive
4) COc1ccc2[nH]cc(CCNC3CCN(Cc4ccccc4)CC3)c2c1: inactive
5) COc1ccc2c(c1)c1c(n2C)C2(CCN(Cc3ccc(F)cc3F)CC2)NCC1: inactive

Query :: Entry COc1ccc2[nH]c3c(c2c1)CCN[C@@]31CCN2Cc3ccccc3C[C@H]2C1 (racemic) needs its Activity filled in; supply it.
Result :: inactive

Query :: Entry COc1ccc2[nH]c3c(c2c1)CCNC31CCN(Cc2ccc(C(C)(C)C)cc2)CC1 needs its Activity filled in; supply it.
Result :: inactive

---

- assay target: Cystic fibrosis transmembrane conductance regulator (Homo sapiens, UniProt P13569, N1303K)
- experimental details: Potentiation of CFTR N1303K mutant (unknown origin) expressed in rat FRT cells assessed as increase in VX-770-stimulated chloride current in presence of forskolin by short circuit method
pEC50: −log10 of the molar value.
measurement name: pEC50

1. Fc1ccc(CN2CCC3(CC2)NCCc2c3[nH]c3ccccc23)c(F)c1: 5.09
2. COc1ccc2[nH]c3c(c2c1)CCNC31CCN(Cc2cc(F)ccc2F)CC1: 4.95

1: COc1ccc2[nH]c3c(c2c1)CCNC31CCN(Cc2ccc(F)c(F)c2)CC1
2: COc1ccc2[nH]c3c(c2c1)CCNC31CCN(Cc2c(F)ccc(Cl)c2F)CC1
3: COc1ccc2[nH]c3c(c2c1)CCNC31CCCN(Cc2ccc(F)cc2F)CC1 (stereo unspecified)
4: COc1ccc2[nH]c3c(c2c1)CCNC31CCN(Cc2cc(F)cc(Cl)c2)CC1
Query :: Could you please sort these 4 entries by pEC50 from high to low? When ranking, write the labels in the order the request describes.
Result :: 4, 2, 1, 3

---

- experimental details: Potentiation of CFTR I1234del mutant (unknown origin) expressed in rat FRT cells assessed as increase in VX-770-stimulated chloride current in presence of forskolin by short circuit method
- Type: cell-based
- condition info: Homo sapiens
measurement name: EC50 (nM)
The reply should be a number in nM, with the unit left off.

Query :: Entry COc1ccc2[nH]c3c(c2c1)CCNC31CCN(Cc2cc(F)c(F)cc2F)CC1 needs its EC50 filled in; supply it.
Result :: 700
